Entries and their Bliss excess values follow.
# Tested on: LU-65 (Non-Small Cell Lung Carcinoma);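 note: after 72 h of two-drug dosing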
# assay_info: Bliss excess, mean over the matrix (fraction); higher = more synergy
The reply should be a number, written without any unit.

Output Bliss excess of CS(=O)(=O)CCNCc1ccc(-c2ccc3ncnc(Nc4ccc(OCc5cccc(F)c5)c(Cl)c4)c3c2)o1 [Lapatinib] + C[C@@H](Oc1cc(-c2cnn(C3CCNCC3)c2)cnc1N)c1c(Cl)ccc(F)c1Cl [Crizotinib] (first compound max 10 µM, 7x7, partner max 10 µM)
-0.0236

Tell us which Bliss excess value is on record for C=CCn1c(=O)c2cnc(Nc3ccc(N4CCN(C)CC4)cc3)nc2n1-c1cccc(C(C)(C)O)n1 [AZD1775] + Nc1ccn([C@@H]2O[C@H](CO)[C@@H](O)C2(F)F)c(=O)n1 [Gemcitabine] (first compound max 1 µM, partner max 0.3 µM)
-0.0081

Recall and state the measured Bliss excess for COc1cccc(OCCCN)c1-c1cc(Nc2cnc(C#N)cn2)n[nH]1 [Prexasertib] + CCc1c2c(nc3ccc(O)cc13)-c1cc3c(c(=O)n1C2)COC(=O)[C@]3(O)CC [SN-38] (first compound max 1 µM, 7x7, partner max 0.3 µM) .
-0.0185

Let me know recorded Bliss excess for Cc1cc2ncnn2cc1Nc1ncc2c(n1)n(C1CCOCC1)c(=O)n2C [AZD7648] + O=C(c1cc(Cc2n[nH]c(=O)c3ccccc23)ccc1F)N1CCN(C(=O)C2CC2)CC1 [Olaparib] (first compound max 10 µM, 7x7, partner max 10 µM) , thanks.
-0.0146

* * *

Reported combination Emax is given for each of the following molecules.
# Test system: EW-24 (Ewing's Sarcoma)
# assay_info: combination Emax (second highest fraction inhibited in the dose matrix, 72 h); higher = more inhibition; extreme values may be limits of the assay
Give only the figure.

Some solved entries appear below for comparison.
>>> measured_number("CN(CCO)CC[C@H](CSc1ccccc1)Nc1ccc(S(=O)(=O)NC(=O)c2ccc(N3CCC([C@@H](O)c4ccccc4-c4ccc(Cl)cc4)CC3)cc2)cc1S(=O)(=O)C(F)(F)F [AZD4320] + C[C@@H]1COCCN1C2=NC(=NC(=C2)C3(CC3)[S@](=N)(=O)C)C4=C5C=CNC5=NC=C4 [AZD6738] (first compound max 1 µM, 7x7, partner max 10 µM)")
0.954
>>> measured_number("Cc1c2c(nn1C)CSCc1cc(n(C)n1)CSc1cc(c3ccccc3c1)OCCCc1c(C(=O)O)n(C)c3c-2c(Cl)ccc13 [AZD5991] + C[C@@H](Nc1cc(F)cc(F)c1)c1cc(C(=O)N(C)C)cc2c(=O)cc(N3CCOCC3)oc12 [AZD8186] (first compound max 1 µM, 7x7, partner max 3 µM)")
0.291
>>> measured_number("COc1nnc2ccc(N3CCC(c4ccc(OCCN5CCN(C)C(=O)[C@H]5C)cc4)CC3)nn12 [AZD5153] + Cc1c2c(nn1C)CSCc1cc(n(C)n1)CSc1cc(c3ccccc3c1)OCCCc1c(C(=O)O)n(C)c3c-2c(Cl)ccc13 [AZD5991] (first compound max 1 µM, 7x7, partner max 1 µM)")
0.685
>>> measured_number("O=C(c1cc(Cc2n[nH]c(=O)c3ccccc23)ccc1F)N1CCN(C(=O)C2CC2)CC1 [Olaparib] + CC1(C)CCC(CN2CCN(c3ccc(C(=O)NS(=O)(=O)c4ccc(NCC5CCOCC5)c([N+](=O)[O-])c4)c(Oc4cnc5[nH]ccc5c4)c3)CC2)=C(c2ccc(Cl)cc2)C1 [Venetoclax] (first compound max 10 µM, 7x7, partner max 1 µM)")
0.195
>>> measured_number("CN(C)CCCOc1ccc(-c2ccc3ncc4c(c3c2)n(C2CCOCC2)c(=O)n4C)cn1 [AZD0156] + CCN(CCO)CCCOc1ccc2c(Nc3cc(CC(=O)Nc4cccc(F)c4)[nH]n3)ncnc2c1 [AZD2811] (first compound max 1 µM, 7x7, partner max 1 µM)")
0.302

Given the molecule Cc1c2c(nn1C)CSCc1cc(n(C)n1)CSc1cc(c3ccccc3c1)OCCCc1c(C(=O)O)n(C)c3c-2c(Cl)ccc13 [AZD5991] + C[C@@H]1COCCN1C2=NC(=NC(=C2)C3(CC3)[S@](=N)(=O)C)C4=C5C=CNC5=NC=C4 [AZD6738] (first compound max 1 µM, 7x7, partner max 10 µM) , write its reported combination Emax.
0.53

Answer with the recorded combination Emax of Cc1c2c(nn1C)CSCc1cc(n(C)n1)CSc1cc(c3ccccc3c1)OCCCc1c(C(=O)O)n(C)c3c-2c(Cl)ccc13 [AZD5991] + Nc1ccn([C@@H]2O[C@H](CO)[C@@H](O)C2(F)F)c(=O)n1 [Gemcitabine] (first compound max 1 µM, 7x7, partner max 0.3 µM) only.
0.672
